Can you tell me MIC for the items I'm about to list?
tested on: Uromyces appendiculatus; test: Fungicidal activity against Uromyces appendiculatus inoculated in Phaseolus vulgaris placed in growth room after 24 hr incubation assessed as disease cure after 24 hr of inoculation; type: functional
State the answer as a number, implicitly in µg/mL.

Look up MIC of Clc1ccc(C(COCc2ccccc2)Cn2cncn2)c(Cl)c1 (racemic) and report it. 35

Look up MIC of COc1ccc(COCC(Cn2cncn2)c2ccc(Cl)cc2Cl)cc1 (racemic) and report it. 12

Look up MIC of C=CCOCC(Cn1cncn1)c1ccc(Cl)cc1Cl (racemic) and report it. 28

Look up MIC of FC(F)C(F)(F)OCC(Cn1cncn1)c1ccc(Cl)cc1Cl (centres undefined) and report it. 25

###

test system: Bipolaris maydis; experiment: Antifungal activity against Cochliobolus heterostrophus assessed as inhibition of radial growth on potato dextrose; type: functional, organism-based
Can you tell me log10 EC50 for the items I'm about to list?
Please interpret these as log10 of EC50 where EC50 is in µg/mL.

Look up log10 EC50 of Clc1ccc(C(COCc2ccc(OCc3ccccc3)cc2)Cn2cncn2)c(Cl)c1 (racemic) and report it. -0.82

Look up log10 EC50 of `C=CCOC[C@H](Cn1cncn1)c1ccc(Cl)cc1Cl` and report it. -0.70

Look up log10 EC50 of Clc1ccc(COCC(Cn2cncn2)c2ccc(Cl)cc2Cl)c(Cl)c1 (racemic) and report it. -0.55

Look up log10 EC50 of `C=C(Cn1cncn1)c1ccc(Cl)cc1Cl` and report it. -0.40

Look up log10 EC50 of `C=CCOC[C@@H](Cn1cncn1)c1ccc(Cl)cc1Cl` and report it. -0.74

Look up log10 EC50 of `Clc1ccc([C@@H](COCc2ccccc2)Cn2cncn2)c(Cl)c1` and report it. -0.60

Look up log10 EC50 of O=[N+]([O-])c1ccc(COCC(Cn2cncn2)c2ccc(Cl)cc2Cl)cc1 (racemic) and report it. -0.82

Look up log10 EC50 of C=CCOCC(Cn1cncn1)c1ccc(Cl)cc1Cl (racemic) and report it. -0.80

Look up log10 EC50 of Clc1ccc(C(COC/C=C/c2ccccc2)Cn2cncn2)c(Cl)c1 (racemic) and report it. -0.74

Look up log10 EC50 of Clc1ccc(C(COCCCc2ccccc2)Cn2cncn2)c(Cl)c1 (racemic) and report it. -0.72

Look up log10 EC50 of COc1ccc(COCC(Cn2cncn2)c2ccc(Cl)cc2Cl)cc1 (racemic) and report it. -0.82

Look up log10 EC50 of Clc1ccc(C(COCc2cccc(Oc3ccccc3)c2)Cn2cncn2)c(Cl)c1 (racemic) and report it. 2.18

Look up log10 EC50 of Clc1ccc(C(COCc2cccs2)Cn2cncn2)c(Cl)c1 (racemic) and report it. -0.70

###

tested on: Uromyces appendiculatus; assay: Fungicidal activity against Uromyces appendiculatus inoculated in Phaseolus vulgaris placed in growth room after 24 hr incubation assessed as direct protection after 6 to 10 days; format: functional
Can you tell me MIC for the items I'm about to list?

Look up MIC of CC(C)(C)c1ccc(COCC(Cn2cncn2)c2ccc(Cl)cc2Cl)cc1 (racemic) and report it. 25 µg/mL

Look up MIC of Clc1ccc(C(COCc2ccc(OCc3ccc(OCc4ccccc4)cc3)cc2)Cn2cncn2)c(Cl)c1 (racemic) and report it. > 100 µg/mL

Look up MIC of Clc1ccc(C(COCc2ccc(-c3ccccc3)cc2)Cn2cncn2)c(Cl)c1 (racemic) and report it. 28 µg/mL

Look up MIC of C#CCOCC(Cn1cncn1)c1ccc(Cl)cc1Cl (stereo not given) and report it. > 100 µg/mL

Look up MIC of Clc1ccc(C(COCc2ccccc2)Cn2cncn2)c(Cl)c1 (racemic) and report it. 30 µg/mL

Values were extracted from ChEMBL document CHEMBL3045489.
